molecular target: HPK1 (Homo sapiens (Human), UniProt Q92918)
Sequence (Q92918 1-346 limits assumed): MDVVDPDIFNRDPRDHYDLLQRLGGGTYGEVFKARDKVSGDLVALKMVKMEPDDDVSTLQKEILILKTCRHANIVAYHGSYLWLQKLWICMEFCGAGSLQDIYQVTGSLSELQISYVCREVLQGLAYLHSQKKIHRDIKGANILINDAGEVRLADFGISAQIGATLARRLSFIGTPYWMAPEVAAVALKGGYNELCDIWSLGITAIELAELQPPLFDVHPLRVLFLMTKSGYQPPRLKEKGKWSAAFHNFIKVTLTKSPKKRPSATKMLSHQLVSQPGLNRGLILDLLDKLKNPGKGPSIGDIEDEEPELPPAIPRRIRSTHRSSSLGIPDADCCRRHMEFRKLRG
pKi: −log10 of the molar value.
OBSERVATION TYPE: pKi

Query string: Suppose we examine the molecule COc1cccc(F)c1-c1nccc(C(=O)Nc2cc(F)c3nn(C)cc3c2N2CCC[C@@H]2CN)n1 (single isomer, unassigned; peak 1) [10, Peak 1] ; what pKi value has been reported?
Result string: > 7.00
